Please provide measured z-score for the entries that follow.
MEASUREMENT NOTES: Components of the Cytosolic LPS Sensing Pathway: Gene Identification via Genome-wide siRNA Screen;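 also: robust z of the log signal after scaling to non-targeting control siRNA wells of the plate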
TEST PARAMETERS: RAW264.7 macrophages, IL-1a HTRF, actives lie on both sides, screened at 100 nM (by protocol), cells primed 5 h with Pam3CSK4 first
The campaign covered roughly 53,000 sequences. About 3,700 (7%) were called active. The sample as a whole holds a higher share of actives than the screen did.
Field format: numeric only.

Req: Which z-score value belongs to CGCAGGACGAUUAUGACGUTT against Pcdhb12 ?
Resp: 0.753

Req: Which z-score value belongs to CCAUACAGAUCGCACCCUGTT against Txndc15 ?
Resp: -2.15

Req: Which z-score value belongs to GGCUUUACUACUCAACCAUTT against Gjb3 ?
Resp: -0.388

Req: Which z-score value belongs to GGGUUUUUUUAGAGAGAUUTT against Susd3 ?
Resp: -2.11

Req: Which z-score value belongs to GGGAAGCAGAAAUGAGAAATT against Pdcd5 ?
Resp: 0.135

Req: Which z-score value belongs to UGAUAGUCUCCACUAAAUUTT against Gm4884 ?
Resp: -0.265

Req: Which z-score value belongs to GGCAUCAAAAAGCAGACAATT against Erich2 ?
Resp: -1.98

Req: Which z-score value belongs to GGAUAAAGUCACCUUCAUCTT against Itgam ?
Resp: 1.86

Req: Which z-score value belongs to GGAACAAAACAAAUAGCUATT against Vstm2a ?
Resp: 1.79

Req: Which z-score value belongs to GCACAACUCAGAAGUAAUUTT against Ghr ?
Resp: 0.271

Req: Which z-score value belongs to GGAGACUUUGAAAAAAGACTT against Mrps31 ?
Resp: 0.5

Req: Which z-score value belongs to CGGCAUUCAGAUUGUCUCUTT against Nup210 ?
Resp: -1.22

Req: Which z-score value belongs to GGUCAUUCACGUCUGCGUUTT against Kcnj8 ?
Resp: -0.292

Req: Which z-score value belongs to GGUGUUAGGAAGUCACAUUTT against Tas2r109 ?
Resp: -1.28

Req: Which z-score value belongs to CAACCGUUGUGGCCAUGACTT against Olfr59 ?
Resp: -0.332

Req: Which z-score value belongs to GCCUAAGCCUACCAAACGATT against Ints3 ?
Resp: 0.0965

Req: Which z-score value belongs to CGCAGUUCAUCGCAUGAUUTT against Arhgef12 ?
Resp: 0.611

Req: Which z-score value belongs to GGAGUGUGUAUGGAAAAUATT against Tll1 ?
Resp: 0.0134

Req: Which z-score value belongs to GGAUGUCUAUUUUUGGUCATT against Esd ?
Resp: -0.819

Req: Which z-score value belongs to GGACAAGAUUGUAUCUGCATT against Olfr1507 ?
Resp: -0.56

Req: Which z-score value belongs to GGGCUGAUGAGCAAAGCAUTT against Setd4 ?
Resp: -1.01
